- assayProtocol: Stability in human plasma
- condition: 37° C., 30 minutes
valueKind: Percentage of the compound remaining in plasma (%)

> print(dat)
                                    compound  value
 1  C[C@@H]1CN(C(=O)OCOc2ccc([N+](=O)[O-])c3cccnc23)C[C@H](C)O1  100.9
 2  COC(=O)[C@H](Cc1ccccc1)NC(=O)OCOc1ccc([N+](=O)[O-])c2cccnc12   83.6
 3  O=C(OCOc1ccc([N+](=O)[O-])c2cccnc12)N1CCOCC1   97.8
 4  CCC(NC(=O)OCOc1ccc([N+](=O)[O-])c2cccnc12)C(=O)OC (stereo not shown)  103.3
 5  CN1CCN(C(=O)OCOc2ccc([N+](=O)[O-])c3cccnc23)CC1  106.0
 6  CCC(CC)C(=O)OCOc1ccc([N+](=O)[O-])c2cccnc12   39.5
 7  CCC(C)C(NC(=O)OCOc1ccc([N+](=O)[O-])c2cccnc12)C(=O)OC (stereo not shown)   94.5
 8  CC1CN(C(=O)OCOc2ccc([N+](=O)[O-])c3cccnc23)CCO1 (stereo not shown)  101.8
 9  CN(CC(O)CO)C(=O)OCOc1ccc([N+](=O)[O-])c2cccnc12 (stereo not shown)   94.1
10  CC(C)(C)C(=O)OCOc1ccc([N+](=O)[O-])c2cccnc12 [Compound 4, (5-nitroquinolin-8-yloxy)methyl pivalate]   70.7
11  CCC(C)C(C(=O)OC)N(C)C(=O)OCOc1ccc([N+](=O)[O-])c2cccnc12 (stereo not shown)   98.2
12  CCC(CC)C(=O)OC(C)Oc1ccc([N+](=O)[O-])c2cccnc12 (stereo not shown)   98.0
13             O=[N+]([O-])c1ccc(O)c2ncccc12   98.3
14  CC(C)OC(=O)[C@H](C)NP(=O)(OCOc1ccc([N+](=O)[O-])c2cccnc12)Oc1ccccc1 (stereo partly shown)   94.0
15  CC(C)(C)OP(=O)(OCOc1ccc([N+](=O)[O-])c2cccnc12)OC(C)(C)C   89.0
16  COC(=O)CN(C)C(=O)Oc1ccc([N+](=O)[O-])c2cccnc12   93.0
